Tested on: RS4-11 (MLL-AF4)
protocol_description: LTP assay, CellTiterGlo, T4-T14 (Example 103), RS4-11
Assay type: cell-based
condition_label: Homo sapiens, RS4-11, RS4-11 (MLL-AF4), T11; read-out: IC50 T11
measurement_label: IC50

>  <smiles_repr>
Cc1nccc2[nH]c(-c3ccc(NC(=O)Cc4cc(-c5cccnc5)n[nH]4)cc3)nc12

>  <test_result>
> 5000 nM

$$$$
>  <smiles_repr>
O=C(Nc1ccc(-c2nc3c(N4CCOCC4)nccc3[nH]2)cc1)Nc1cc(-c2cccnc2)n[nH]1

>  <test_result>
> 5000 nM

$$$$
>  <smiles_repr>
Cc1cn(-c2nccc3[nH]c(-c4ccc(NC(=O)Cc5cc(-c6cccnc6)n[nH]5)cc4)nc23)cn1

>  <test_result>
> 5000 nM

$$$$
>  <smiles_repr>
O=C(Cc1cc(-c2cccnc2)n[nH]1)Nc1ccc(-c2nc3c(N4CCOCC4)ncnc3[nH]2)cc1

>  <test_result>
260 nM

$$$$
>  <smiles_repr>
Cn1nc(-c2cccnc2)cc1CC(=O)Nc1ccc(-c2cc3c(N4CCOCC4)ncnc3[nH]2)cc1

>  <test_result>
110 nM

$$$$

Below: the item to evaluate.
QUERY: Data request, read-out IC50, for Cc1ccc(-c2cc(CC(=O)Nc3ccc(-c4nc5c(N6CCOCC6)nccc5[nH]4)cc3)[nH]n2)cn1
RESULT: > 5000 nM

---

System: RS4-11 (MLL-AF4)
protocol_description: LTP assay, CellTiterGlo, T4-T14 (Example 103), RS4-11
Assay type: cell-based
condition_label: Homo sapiens, RS4-11, RS4-11 (MLL-AF4), T7; read-out: IC50 T7
measurement_label: IC50 (nM)
Give the value, in units of nM, as a plain number.

Worked examples, 4 compounds total:
>  <compound>
Cc1cn(-c2nccc3[nH]c(-c4ccc(NC(=O)Cc5cc(-c6cccnc6)n[nH]5)cc4)nc23)cn1 [Compound 31]

>  <measurement_label>
IC50

>  <unit_annotation>
nM

>  <test_result>
1350

$$$$
>  <compound>
O=C(Cc1cc(-c2cccnc2)n[nH]1)Nc1ccc(-c2nc3c(N4CCOCC4)ncnc3[nH]2)cc1 [Compound 12]

>  <measurement_label>
IC50

>  <unit_annotation>
nM

>  <test_result>
420

$$$$
>  <compound>
Cn1nc(-c2cccnc2)cc1CC(=O)Nc1ccc(-c2cc3c(N4CCOCC4)ncnc3[nH]2)cc1 [Compound 11]

>  <measurement_label>
IC50

>  <unit_annotation>
nM

>  <test_result>
850

$$$$
>  <compound>
O=C(Nc1ccc(-c2nc3c(N4CCOCC4)nccc3[nH]2)cc1)Nc1cc(-c2cccnc2)n[nH]1 [Compound 19]

>  <measurement_label>
IC50

>  <unit_annotation>
nM

>  <test_result>
1550

$$$$

QUERY: Given the compound Cc1ccc(-c2cc(CC(=O)Nc3ccc(-c4nc5c(N6CCOCC6)nccc5[nH]4)cc3)[nH]n2)cn1 [Compound 32] , what is its reported IC50?
RESULT: 2750

---

Tested on: KG-1
protocol_description: Long term proliferation, InCell (Table 3C), KG-1
Assay type: cell-based
condition_label: Homo sapiens, 264 h; KG-1, InCell, Day 11; read-out: Day 11 IC50
Measured IC50 accompanies every entry in the list below.
A number alone suffices; assume nM.

>  <smiles_repr>
O=C(Nc1ccc(-c2cc3c(N4CCOCC4)ncnc3[nH]2)cc1)Nc1cc(-c2ccncc2)no1

>  <IC50 (nM)>
2090

$$$$

QUERY: Which IC50 is reported for this molecule? O=C(Nc1ccc(-c2cc3c(N4CCOCC4)ncnc3[nH]2)cc1)Nc1cc(-c2cccnc2)n[nH]1
RESULT: 2290
